molecular target: GabaA, Benzodiazepine (Central) Site; assay: GabaA, Benzodiazepine (Central) Site Binding Assay; details: assay characteristic of the radioligand; bovine cortical membranes; read-out: KD (binding affinity)
PARAMETER: pKd
pKd is a log-scale quantity: -log10 of the concentration expressed in molar.

Query (compound): CN1C(=O)CN=C(c2ccccc2F)c2cc([N+](=O)[O-])ccc21 [[^3H] Flunitrazepam] ; field requested: pKd
8.85
